Listed here are compounds together with their documented IC50.
assay.protocol: Modified Recombinant Enzyme Assay: Glutaminase reaction buffer was prepared [50 mM Tris-HCl pH 8.8, 150 mM K2HPO4, […] EDTA, 0.1 mg/ml BSA (Calbiochem no. 2960), 1 mM DTT, 2 mM NADP+(Sigma Aldrich no. N5755), and 0.01% TX-100] and used to make 3×-enzyme-containing solution, 3×-substrate-containing solution, and 3×-inhibitor-containing solution (see below) Inhibitor-containing solution was made
value.type: IC50 (nM)

> print(dat)
                               entry.smiles  assay.value
1  COc1ccc(OC(F)(F)F)cc1CC(=O)Nc1ccc(CCCCc2nnc(NC(=O)Cc3ccccn3)s2)nn1           34
2  Cc1cccc(CC(=O)Nc2nnc(CCCCc3ccc(NC(=O)Cc4cccc(OC(F)(F)F)c4)nn3)s2)n1           12
3  COc1cc(CC(=O)Nc2ccc(CCCCc3nnc(NC(=O)Cc4ccccn4)s3)nn2)cc(OC(F)(F)F)c1           16
4  O=C(Cc1cc(OC(F)(F)F)ccc1O)Nc1ccc(CCCCc2nnc(NC(=O)Cc3ccccn3)s2)nn1           26
5  O=C(Cc1ccc(F)c(OC(F)(F)F)c1)Nc1ccc(CCCCc2nnc(NC(=O)Cc3ccccn3)s2)nn1           33
6  O=C(Cc1cc(OC(F)(F)F)ccc1F)Nc1ccc(CCCCc2nnc(NC(=O)Cc3ccccn3)s2)nn1           20
7  O=C(Cc1cc(O)cc(OC(F)(F)F)c1)Nc1ccc(CCCCc2nnc(NC(=O)Cc3ccccn3)s2)nn1           13
8  Nc1cccc(CC(=O)Nc2nnc(CCCCc3ccc(NC(=O)Cc4cccc(OC(F)(F)F)c4)nn3)s2)n1           50
9  COc1ccc(CC(=O)Nc2ccc(CCCCc3nnc(NC(=O)Cc4ccccn4)s3)nn2)cc1OC(F)(F)F           24
